// provenance: patent US20200223906A1

# Neut IC50 (µg/ml) subtype B annotations
targetEntity: RSV F protein of subtype B (18537) on recombinant mKate-RSV virus (Respiratory syncytial virus subtype B …, UniProt P13843 26-574)
methodDescription: cell-based or functional assay

Use these answered entries as a reference point.
1) ADI-18907 (antibody, V domains shown, full-length IgG from yeast; also called Antibody Number 262; Ab # 262) VH: QVQLVQSGPEVKKPGSSVKVSCKASGGTFSSYAITWVRQAPGQGLEWMGGIIPSFDRVDYSRNFKGRVTFTADKSANTAYMELTNVRSDDTAVYYCARGCCGAVAGFQHWGQGTGVTVSS VL: DIVLTQTPATLSLSPGETATLSCRASQSVTTYLAWYQQKPGQAPRLLIYDASNRATGVPTRFSGSGSGTDFTLTISSLEPEDYAIYYCQQRTTGVTFGGGTKVEIK : > 10 µg/mL
2) ADI-18895 (antibody, V domains shown, full-length IgG from yeast; also called Antibody Number 250; Ab # 250) VH: QVQLVQSGPEVKKTRESLKIYCKGSGYSFISHWIGWVRQKPGKGLEWMGIIYPGDSDTRYSPSFQGQVAISADKSINTAYLQWSSLKSSDTAIYYCASVMLRGIMWGQGTLVTVSS VL: DIRLTQSPSSLSASVGDRVTITCQASQDISKYLNWYQQKPGKAPKLLIYDASNLETGVPSRFSGSGSGTDFTFTISSLQPEDIATYYCQPYDNLPPPLTFGGGTKLEIK : > 10 µg/mL

Output measured Neut IC50 (µg/ml) subtype B for this item: ADI-18948 (antibody, V domains shown, full-length IgG from yeast; also called Antibody Number 300; Ab # 300) VH: EVQLLESGGGVVQSGRSLRLSCVASGFTFSDSGMHWVRQAPGKGLEWVAGLFYDGSNKQYADSVKGRFTISRDNSKSTLYLQMNSLRAEDTAVYYCARAPYDIWSGYCLDYWGQGTLVTVSS VL: EIVLTQSPATLYMSPGERATLSCRASQSVNNNLAWYQQRPGQAPRLLIYGASTRATGIPARFSGSGSETEFTLTISSLQSEDFAVYHCQQYSIWPQTFGQGTKLEIK 4.35 µg/mL
